Parameter: MIC. Scope: all listed entries.
System: Staphylococcus aureus
Test: Antibacterial activity against Staphylococcus aureus Smith
Format: functional
Conditions: Staphylococcus aureus, Smith; read-out: MIC

[
  {
    "COMPOUND": "O=C1COc2cc(F)c(CNC34CCC(C[C@]5(O)Cn6c(=O)ccc7ncc(F)c5c76)(CC3)OC4)nc2N1",
    "MIC / µg/mL": 0.5
  },
  {
    "COMPOUND": "O=c1ccc2ncc(F)c3c2n1C[C@@]3(O)CC12CCC(NCc3cc(Cl)c4c(c3Cl)OCCO4)(CC1)CO2",
    "MIC / µg/mL": 0.5
  },
  {
    "COMPOUND": "O=c1ccc2ncc(F)c3c2n1C[C@@]3(O)CC12CCC(NCc3ccc4c(c3)OCO4)(CC1)CO2",
    "MIC / µg/mL": 0.5
  },
  {
    "COMPOUND": "O=c1ccc2ncc(F)c3c2n1C[C@@]3(O)CC12CCC(NCOc3cc(F)ccc3F)(CC1)CO2",
    "MIC / µg/mL": 1
  },
  {
    "COMPOUND": "O=c1ccc2ncc(F)c3c2n1C[C@@]3(O)CC12CCC(NCc3cc4c(c(Cl)c3Cl)OCCO4)(CC1)CO2",
    "MIC / µg/mL": 1
  },
  {
    "COMPOUND": "O=c1ccc2ncc(F)c3c2n1C[C@@]3(O)CC12CCC(NCc3cc(-c4cccs4)on3)(CC1)CO2",
    "MIC / µg/mL": 0.25
  },
  {
    "COMPOUND": "O=c1ccc2ncc(F)c3c2n1C[C@@]3(O)CC12CCC(NCc3ccc4c(n3)OCCN4)(CC1)CO2",
    "MIC / µg/mL": 8
  },
  {
    "COMPOUND": "O=c1ccc2ncc(F)c3c2n1C[C@@]3(O)CC12CCC(NCc3ccc4c(n3)NCCO4)(CC1)CO2",
    "MIC / µg/mL": 2
  },
  {
    "COMPOUND": "O=c1ccc2ncc(F)c3c2n1C[C@@]3(O)CC12CCC(NCc3ncc4c(c3Cl)OCCO4)(CC1)CO2",
    "MIC / µg/mL": 2
  },
  {
    "COMPOUND": "COc1ccc2nc(CNC34CCC(C[C@]5(O)Cn6c(=O)ccc7ncc(F)c5c76)(CC3)OC4)c(F)cc2n1",
    "MIC / µg/mL": 16
  },
  {
    "COMPOUND": "O=c1ccc2ncc(F)c3c2n1C[C@@]3(O)CC12CCC(NCc3cc4c(cn3)OCCS4)(CC1)CO2",
    "MIC / µg/mL": 0.25
  },
  {
    "COMPOUND": "CC1COc2cnc(CNC34CCC(C[C@]5(O)Cn6c(=O)ccc7ncc(F)c5c76)(CC3)OC4)cc2O1 (stereo in doubt; 22)",
    "MIC / µg/mL": 4
  },
  {
    "COMPOUND": "Nc1cc2c(nc1CNC13CCC(C[C@]4(O)Cn5c(=O)ccc6ncc(F)c4c65)(CC1)OC3)NC(=O)CO2",
    "MIC / µg/mL": 8
  },
  {
    "COMPOUND": "O=C1COc2cnc(CNC34CCC(C[C@]5(O)Cn6c(=O)ccc7ncc(F)c5c76)(CC3)OC4)cc2N1",
    "MIC / µg/mL": 4
  },
  {
    "COMPOUND": "O=c1ccc2ncc(F)c3c2n1C[C@@]3(O)CC12CCC(NCc3cc4c(cn3)S(=O)(=O)CCO4)(CC1)CO2",
    "MIC / µg/mL": 8
  },
  {
    "COMPOUND": "Cc1cc2c(nc1CNC13CCC(C[C@]4(O)Cn5c(=O)ccc6ncc(F)c4c65)(CC1)OC3)NC(=O)CO2",
    "MIC / µg/mL": 1.5
  },
  {
    "COMPOUND": "O=c1ccc2ncc(F)c3c2n1C[C@@]3(O)CC12CCC(NC/C=C/c3ccc(F)cc3)(CC1)CO2",
    "MIC / µg/mL": 0.5
  },
  {
    "COMPOUND": "N#Cc1c(CNC23CCC(C[C@]4(O)Cn5c(=O)ccc6ncc(F)c4c65)(CC2)OC3)ncc2c1OCCO2",
    "MIC / µg/mL": 8
  },
  {
    "COMPOUND": "O=c1ccc2ncc(F)c3c2n1C[C@@]3(O)CC12CCC(NCc3cc4c(cc3Cl)OCCO4)(CC1)CO2",
    "MIC / µg/mL": 0.25
  }
]
